The entries below are paired with their reported IC50.
Biological target: Tyrosine-protein phosphatase non-receptor type 1 (Homo sapiens)
Sequence (P18031 whole entry): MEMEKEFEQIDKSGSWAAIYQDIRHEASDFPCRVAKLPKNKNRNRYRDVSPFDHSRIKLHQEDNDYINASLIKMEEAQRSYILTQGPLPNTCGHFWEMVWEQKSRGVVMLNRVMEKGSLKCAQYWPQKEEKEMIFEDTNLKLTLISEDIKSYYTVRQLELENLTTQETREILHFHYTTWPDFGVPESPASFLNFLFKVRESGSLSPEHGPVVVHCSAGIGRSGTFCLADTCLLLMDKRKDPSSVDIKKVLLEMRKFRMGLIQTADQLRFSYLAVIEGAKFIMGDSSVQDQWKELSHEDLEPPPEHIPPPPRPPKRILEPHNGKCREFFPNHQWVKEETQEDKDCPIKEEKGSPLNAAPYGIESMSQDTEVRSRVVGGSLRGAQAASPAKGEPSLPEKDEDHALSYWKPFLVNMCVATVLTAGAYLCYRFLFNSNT
measuredAttribute: IC50 (µM)

> print(dat)
                                   compound  measuredattribute  censoringsign  measuredresult
1  C=C1CCC[C@H]2[C@](C)(Cc3cc(OC(=O)CC)ccc3OC(=O)CC)[C@@H](C)CC[C@]12C               IC50              =             9.4
2  CC1=CCC[C@H]2[C@](C)(CC3=CC(=O)C=C(N)C3=O)[C@@H](C)CC[C@]12C               IC50              =              18
3  CC1=CCC[C@H]2[C@]3(C)Cc4cc(O)ccc4O[C@]3(C)CC[C@]12C               IC50              =              11
4  CC1=CCC[C@H]2[C@](C)(Cc3cc(O)ccc3O)[C@@H](C)CC[C@]12C [AVAROL]               IC50              =              12
5  C=C1CCC[C@H]2[C@](C)(Cc3cc(O)ccc3O)[C@@H](C)CC[C@]12C               IC50              >              32
